Entries and their Kd
Molecular target: DR2a (DRA*0101/DRB5*0101) (Homo sapiens, UniProt P01903+Q30154)
Construct: DRA*01011-181LZFos; DRB5*01011-190LZJunBSP; made in house
Assay: Direct LOCI peptide-MHC-II binding assay, DR2a
ATTRIBUTE_MEASURED: Kd (µM)

1) CC[C@H](C)[C@H](N)C(=O)N[C@H](C(=O)N[C@@H](Cc1ccccc1)C(=O)N[C@@H](CCSC)C(=O)N[C@@H](Cc1c[nH]c2ccccc12)C(=O)N[C@@H](C)C(=O)N[C@H](C(=O)N[C@@H](Cc1c[nH]cn1)C(=O)N[C@@H](Cc1c[nH]cn1)C(=O)O)[C@@H](C)CC)C(C)C [Flu HA1194-202] : 0.167
2) CC(C)C[C@H](NC(=O)CNC(=O)[C@H](Cc1c[nH]c2ccccc12)NC(=O)CNC(=O)[C@@H](NC(=O)[C@@H]1CCCN1C(=O)[C@@H](NC(=O)[C@H](C)NC(=O)[C@H](CC(=O)O)NC(=O)[C@H](C)NC(=O)[C@H](Cc1ccccc1)NC(=O)[C@@H](NC(=O)[C@H](CCC(N)=O)NC(=O)[C@H](CS)NC(=O)[C@H](CC(C)C)NC(=O)[C@@H](N)Cc1ccc(O)cc1)C(C)C)[C@@H](C)O)[C@@H](C)O)C(=O)O : 3.7

* * *

Target: I-E^d (Mus musculus, UniProt P01904+P01915)
Construct: I-E^dA1-191LZFos; I-E^dB1-198LZJunBSP; made in house
Assay: Direct LOCI peptide-MHC-II binding assay, I-E^d
Conditions: 48 h 18°C; read-out: I-E^D affinity
pKd: −log10 of the molar value. Where no end group is shown, it is not given here.
pKd values by entry
ATTRIBUTE_MEASURED: pKd

1. YILFLVKMNALRRLPV : 6.24
2. YKYVKQNTLKLAT [HA306-318] : 7.60

* * *

Target: DR2a (DRA*0101/DRB5*0101) (Homo sapiens, UniProt P01903+Q30154)
Construct: DRA*01011-181LZFos; DRB5*01011-190LZJunBSP; made in house
Experiment: Competitive LOCI peptide-MHC-II binding assay, DR2a
pIC50: −log10 of the molar value. Where no end group is shown, it is not given here.
ATTRIBUTE_MEASURED: pIC50

1. PLKAEIAQRLEDV [Influenza] : 7.39

* * *

Target: DR3 (DRA*0101/DRB1*0301) (Homo sapiens, UniProt P01903+P01911, A100K/A102G/A103R/A169T/F55Y/I96L/K41T/L162R/M171V/P40S/Q125H/Q178H/Q39Y/R42S/S66N/T106N/T262R/W38E/Y61H)
Construct: DRA*01011-181LZFos; DRB1*03011-190LZJunBSP; made in house
Assay: Direct LOCI peptide-MHC-II binding assay, DR3
Where no end group is shown, it is not given here.
As shown below, each of these sequences has a reported Kd value.
ATTRIBUTE_MEASURED: Kd (nM)

1. HHHHHHIEGRFAALWFRNHFVFGGGTK [6xH Lambda 2(315)] : 882
2. IQMLKNGKKIPKVEMS [Murine β2m] : 21
3. GVTYEIDLTNKN [Mycobact leprea] : 4350
4. YILLKKILSSRFNQM [Plasmodium Falciparum] : 32
5. PLKAEIAQRLEDV [Influenza] : 134
6. PIVQNIQGQMVHQ [HIV] : 471
